target: T1, full length human DLL4 on overexpressing CHO or HEK293 cells (human, UniProt Q9NR61 27-685); assay: FMAT, hNotch1/Fc on CHO-hDLL4, periplasmic extract
T1 construct: also called CHO-hDLL4; HEK293-hDII4
T1 sequence (Q9NR61 27-685 limits assumed): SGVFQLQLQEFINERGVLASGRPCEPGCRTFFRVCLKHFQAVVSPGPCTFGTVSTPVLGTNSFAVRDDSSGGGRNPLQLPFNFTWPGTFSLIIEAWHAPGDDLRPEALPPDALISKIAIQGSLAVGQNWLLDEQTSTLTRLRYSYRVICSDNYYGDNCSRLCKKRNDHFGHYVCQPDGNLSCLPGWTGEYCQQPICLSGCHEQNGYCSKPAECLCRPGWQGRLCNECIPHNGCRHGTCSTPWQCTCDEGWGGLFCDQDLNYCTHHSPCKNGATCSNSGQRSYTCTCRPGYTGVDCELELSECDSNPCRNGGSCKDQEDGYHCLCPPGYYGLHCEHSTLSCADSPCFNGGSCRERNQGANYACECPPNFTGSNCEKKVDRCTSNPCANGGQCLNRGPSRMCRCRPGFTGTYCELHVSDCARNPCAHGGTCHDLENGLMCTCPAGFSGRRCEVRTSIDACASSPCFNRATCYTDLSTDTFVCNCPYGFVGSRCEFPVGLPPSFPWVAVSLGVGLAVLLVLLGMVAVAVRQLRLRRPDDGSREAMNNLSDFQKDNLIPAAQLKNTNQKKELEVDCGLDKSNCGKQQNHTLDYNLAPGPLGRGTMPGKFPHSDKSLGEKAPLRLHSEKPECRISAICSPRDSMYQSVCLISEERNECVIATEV
REPORTED_ENDPOINT: FMAT hDLL4 % inhibition

Completed entries (count: 2):
BINDER: DLLBII104B05 (VHH, tested as periplasmic extract; also called DLLBII104B5; not shown: C-terminal c-myc tag and His6 tag) VHH: EVQLVESGGGSVQAGGSLRLSCAASGSISRIDVMAWYRQAPGKERELVASISSGGSTNYADSVKGRFTISREYFKNMMYLQMNSLKFEDTAVYYCNADSRRGGVGNFFRSWGQGTQVTVSS
FMAT hDLL4 % inhibition: 86%
--
BINDER: DLLBII104C04 (VHH, tested as periplasmic extract; also called DLLBII104C4; not shown: C-terminal c-myc tag and His6 tag) VHH: EVQLVESGGGLVQAGGSLRLSCAAAGSTFSSYVMGWYRQAPGKQRELVAHISTRGITYYADSVKGRFTISRDNAKNTMYLQMNSLKPEDTAVYYCNTRRNFLSNYWGQGTQVTVSS
FMAT hDLL4 % inhibition: 87%

Pending binder:
What FMAT hDLL4 % inhibition value was documented for this binder, DLLBII104G01 (VHH, also called DLLBII104G1; 104G1; not shown: C-terminal c-myc tag and His6 tag) VHH: EVQLVESGGGLVQAGGSLRLSCAASGFTFDDYAIGWFRQAPGKEREGVSCISSSDGSTYYADSVKGRFTISSDNAKNTVYLQMNSLKPEDTAVYYCATAWCDSSWYRSFVGYWGQGTQVTVSS ?
94%
